- tgt: T1, EVA‐ACA1001, Avi-tagged and biotinylated (SPR construct) (Amblyomma cajennense (Cayenne tick), UniProt A0A023FFD0 29-136, biotin on the AVI tag (BirA ligase))
- T1 construct: EVA-ACA1001 (Evasin P991), class A3 evasin of Amblyomma cajennense; mass of the untagged protein 11,920 Da (calculated 11,921 Da with five disulfides); also called Evasin P991; full‐length EVA‐ACA1001; not shown: His6, N-terminal, cleaved; SUMO, N-terminal, cleaved
- T1 sequence: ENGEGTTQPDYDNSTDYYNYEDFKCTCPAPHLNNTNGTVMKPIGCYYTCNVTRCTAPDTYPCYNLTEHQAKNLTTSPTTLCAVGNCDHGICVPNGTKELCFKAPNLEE
- experimental protocol: SPR; affinity determination: biotinylated Avi-tagged evasin immobilised on a streptavidin-coated CAPture chip; five two-fold increasing chemokine concentrations (31.25-500 nM), 240 s at 30 uL/min, 600 s dissociation; 1:1 binding model; 25°C; 10 mM HEPES, 500 mM NaCl, 0.002% Tween 20, 3 mM EDTA, 1 mg/mL carboxymethyl dextran, pH 7.5; three independent experiments (Table 1 caption: multiple-cycle kinetics)
- condition info: both partners purified
experimental endpoint: pKd

INSERT INTO assay_data (binder, experimental_endpoint, result) VALUES
  ('CCL3 (ligand, human, UniProt P10147 24-92, looked up, CCL3, human CC chemokine) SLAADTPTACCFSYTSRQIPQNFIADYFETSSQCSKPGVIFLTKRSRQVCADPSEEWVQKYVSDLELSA', 'pKd', '8.99 -log(Kd, M)'),
  ('CCL19 (ligand, human, UniProt Q99731 22-98, looked up, CCL19, human CC chemokine) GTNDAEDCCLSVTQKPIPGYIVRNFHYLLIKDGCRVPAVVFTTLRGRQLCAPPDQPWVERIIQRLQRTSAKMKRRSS', 'pKd', '8.9 -log(Kd, M)'),
  ('CCL17 (ligand, human, UniProt Q92583 24-94, looked up, CCL17, human CC chemokine) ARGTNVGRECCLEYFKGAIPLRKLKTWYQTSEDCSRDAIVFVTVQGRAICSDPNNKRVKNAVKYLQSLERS', 'pKd', '8.99 -log(Kd, M)'),
  ('CCL5 (ligand, human, UniProt P13501 24-91, looked up, CCL5, human CC chemokine) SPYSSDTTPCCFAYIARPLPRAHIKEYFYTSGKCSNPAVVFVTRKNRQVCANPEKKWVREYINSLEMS', 'pKd', '9.55 -log(Kd, M)'),
  ('CCL24 (ligand, human, UniProt O00175 27-119, looked up, CCL24, human CC chemokine) VVIPSPCCMFFVSKRIPENRVVSYQLSSRSTCLKAGVIFTTKKGQQFCGDPKQEWVQRYMKNLDAKQKKASPRARAVAVKGPVQRYPGNQTTC', 'pKd', '8.22 -log(Kd, M)'),
  ('CCL22 (ligand, human, UniProt O00626 25-93, looked up, CCL22, human CC chemokine) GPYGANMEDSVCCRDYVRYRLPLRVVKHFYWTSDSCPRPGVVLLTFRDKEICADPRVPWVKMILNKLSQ', 'pKd', '8.9 -log(Kd, M)'),
  ('CCL1 (ligand, human, UniProt P22362 24-96, looked up, CCL1, human CC chemokine) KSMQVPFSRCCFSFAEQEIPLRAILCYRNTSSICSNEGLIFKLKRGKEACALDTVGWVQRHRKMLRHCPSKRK', 'pKd', '7.71 -log(Kd, M)'),
  ('CCL15 (ligand) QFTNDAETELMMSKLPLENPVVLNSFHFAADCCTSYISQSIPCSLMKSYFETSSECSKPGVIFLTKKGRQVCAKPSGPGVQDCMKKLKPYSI', 'pKd', '7.02 -log(Kd, M)'),
  ('CCL4 (ligand, human, UniProt P13236 24-92, looked up, CCL4, human CC chemokine) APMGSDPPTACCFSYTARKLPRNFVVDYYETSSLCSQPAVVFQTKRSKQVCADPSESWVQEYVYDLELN', 'pKd', '8.93 -log(Kd, M)'),
  ('CCL26 (ligand, human, UniProt Q9Y258 24-94, looked up, CCL26, human CC chemokine) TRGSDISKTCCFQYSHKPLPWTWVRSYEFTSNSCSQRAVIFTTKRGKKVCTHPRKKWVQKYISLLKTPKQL', 'pKd', '8.77 -log(Kd, M)'),
  ('CCL16 (ligand, human, UniProt O15467 24-120, looked up, CCL16, human CC chemokine; The E. coli preparation is described for the crystal; also called human chemokine CCL16; not shown: His6, N-terminal, cleaved; SUMO, N-terminal, cleaved) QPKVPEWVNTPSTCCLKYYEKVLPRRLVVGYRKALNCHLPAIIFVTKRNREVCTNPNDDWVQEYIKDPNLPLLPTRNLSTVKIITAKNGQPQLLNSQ', 'pKd', '9.34 -log(Kd, M)');
